system: murine malignant mesothelioma cell line AB12; assay: MTT cytotoxicity assay, 72 h, AB12; assay type: cell-based, mouse; details: Mus musculus, exposure time 72 h
PROPERTY_NAME: IC50 (nM)
A number alone suffices; assume nM.

State its IC50 on murine malignant mesothelioma cell line AB12: Nc1nc2[nH]cc(CCc3ccc(C(=O)N[C@@H](CCC(=O)O)C(=O)O)cc3)c2c(=O)[nH]1 [Pemetrexed, pemetrexed, reference compound] 23

====

The entries below come with measured pIC50 values attached.
system: patient-derived VMC23 cell line (epithelioid MPM); test: MTT cytotoxicity assay, 72 h, VMC23; type: cell-based, human; settings: exposure time 72 h
Scale note: pIC50 = -log10(concentration in M).

F[P-](F)(F)(F)(F)F.c1ccc(C[N+](Cc2ccccc2)=C2[S][Au-]3([S]2)[c]2ccccc2-c2cccc[n+]23)cc1 (stereo not shown) ... 5.85
CC[N+](=C1[S][Au-]2([S]1)[c]1ccccc1C(OC)c1cccc[n+]12)c1ccccc1.F[P-](F)(F)(F)(F)F (racemic) ... 5.37
F[P-](F)(F)(F)(F)F.c1cc[c]2c(c1)Nc1cccc[n+]1[Au-]21[S]C(=[N+]2CCCCC2)[S]1 (stereo not shown) ... 6.03

Then this compound:
pIC50 for CC[N+](=C1[S][Au-]2([S]1)[c]1ccccc1-c1cccc[n+]12)c1ccccc1.F[P-](F)(F)(F)(F)F (stereo not shown) ? 5.89

====

The entries below come with measured minor RP-HPLC peak, share of the total area after 72 h values attached.
test: Aqueous stability by RP-HPLC in 1:1 DMSO:H2O over 72 h; assay type: physicochemical; settings: room temperature, 72 h
A number alone suffices; assume %.

In the examples that follow, each entry is paired with its recorded minor RP-HPLC peak, share of the total area after 72 h.
F[P-](F)(F)(F)(F)F.c1cc[c]2c(c1)Cc1cccc[n+]1[Au-]21[S]C(=[N+]2CCCC2)[S]1 (stereo not shown) [2F] ... 9
CCCC[N+](CCCC)=C1[S][Au-]2([S]1)[c]1ccccc1C(OC)c1cccc[n+]12.F[P-](F)(F)(F)(F)F (racemic) [4C] ... 8

Then this compound:
minor RP-HPLC peak, share of the total area after 72 h for CC[N+](=C1[S][Au-]2([S]1)[c]1ccccc1C(OC)c1cccc[n+]12)c1ccccc1.F[P-](F)(F)(F)(F)F (racemic) [4E] ? 7

====

The entries below come with measured pIC50 values attached.
system: patient-derived Meso84 cell line (sarcomatoid MPM); test: MTT cytotoxicity assay, 72 h, Meso84; format: cell-based, human; settings: exposure time 72 h
Scale note: pIC50 = -log10(concentration in M).

In the examples that follow, each entry is paired with its recorded pIC50.
COC1c2cccc[c]2[Au-]2([S]C(=[N+]3CCCC3)[S]2)[n+]2ccccc21.F[P-](F)(F)(F)(F)F (racemic) ... 6.47
COC1c2cccc[c]2[Au-]2([S]C(=[N+]3CCCCCC3)[S]2)[n+]2ccccc21.F[P-](F)(F)(F)(F)F (racemic) ... 5.74
CC[N+](CC)=C1[S][Au-]2([S]1)[c]1ccccc1C(OC)c1cccc[n+]12.F[P-](F)(F)(F)(F)F (racemic) ... 5.77
CC[N+](=C1[S][Au-]2([S]1)[c]1ccccc1C(OC)c1cccc[n+]12)c1ccccc1.F[P-](F)(F)(F)(F)F (racemic) ... 5.64
F[P-](F)(F)(F)(F)F.c1cc[c]2c(c1)Nc1cccc[n+]1[Au-]21[S]C(=[N+]2CCCCC2)[S]1 (stereo not shown) ... 7.00
CCCC[N+](CCCC)=C1[S][Au-]2([S]1)[c]1ccccc1C(OC)c1cccc[n+]12.F[P-](F)(F)(F)(F)F (racemic) ... 5.57
F[P-](F)(F)(F)(F)F.c1cc[c]2c(c1)-c1cccc[n+]1[Au-]21[S]C(=[N+]2CCCCC2)[S]1 (stereo not shown) ... 6.15
CCCC[N+](CCCC)=C1[S][Au-]2([S]1)[c]1ccccc1Cc1cccc[n+]12.F[P-](F)(F)(F)(F)F (stereo not shown) ... 5.41
COC1c2cccc[c]2[Au-]2([S]C(=[N+](Cc3ccccc3)Cc3ccccc3)[S]2)[n+]2ccccc21.F[P-](F)(F)(F)(F)F (racemic) ... 5.54
CC[N+](=C1[S][Au-]2([S]1)[c]1ccccc1-c1cccc[n+]12)c1ccccc1.F[P-](F)(F)(F)(F)F (stereo not shown) ... 5.92

pIC50 for F[P-](F)(F)(F)(F)F.c1ccc(C[N+](Cc2ccccc2)=C2[S][Au-]3([S]2)[c]2ccccc2Cc2cccc[n+]23)cc1 (stereo not shown) ? 5.52
